- TARGET_OR_SYSTEM: T1, human Trop-2 expressed on cell surface (human, UniProt P09758 27-323)
- T1 construct: whole, on cells; also called cell surface Trop-2
- T1 sequence (looked up): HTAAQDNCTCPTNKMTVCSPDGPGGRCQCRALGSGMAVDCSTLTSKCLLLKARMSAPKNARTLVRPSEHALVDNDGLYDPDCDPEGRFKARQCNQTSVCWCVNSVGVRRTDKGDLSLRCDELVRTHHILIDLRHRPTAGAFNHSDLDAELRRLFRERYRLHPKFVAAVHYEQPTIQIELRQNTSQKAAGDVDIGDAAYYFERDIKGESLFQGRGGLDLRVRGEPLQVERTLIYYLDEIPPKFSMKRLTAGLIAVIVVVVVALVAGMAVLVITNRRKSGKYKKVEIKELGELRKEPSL
- EXPERIMENTAL_PROTOCOL: flow cytometry, MCF-7 cells
READOUT_TYPE: pEC50
Quick note: pEC50 values are minus log10 of concentrations in mol/L.

Known results for binders:
74F11/15F5 (antibody, human IgG1, V domains shown, LEM construct: VH + rabbit IgG CH1 + human IgG1 CH2-CH3) VH: QEQLKESGGGLVQPGGSLKLSCKASGFDFNNYGMSWVRQAPGKGLEWIAYIYPAFHNTYYANWVNGRFTISSDNAQNTVDLQLNSLTAADTATYFCARDAGSTDYNFNLWGPGTLVTVSS VL: DVVMTQTPASVEAAVGGTVTIKCQASEDIERYLAWYQQKPGQPPKLLIYEASKLPSGVSSRFSGSGYGTEFTLTISGVECADAATYYCQQALTIGYVDNPFGGGSEVVVK = 9.05
5D4-1 (antibody, V domains shown) VH: QQLEESGGGLVKPEGSLTLTCKGSGFDFSGTYWMWWVRQAPGKGLEWIAPIYVGSGSSTYYASWAKGRFTISSTSSTAVTLQATSLTAADTATYFCARGATNNVFMNYFNLWGPGTLVTVSS VL: FEMTQTPSSVSEPVGGTVTIKCQASEDISSNLGWYQQKPGQPPKLLIYGASTLASGVPSRFKGSGSGTEFTLTISDLEPADAATYYCQTSYYIDDGVNGFGGGTEVVVK = 9.00

What value of pEC50 has been recorded for this entry: 9D7-2 (antibody, V domains shown) VH: QSLEESGGDLVQPGASLTLTCKASGFDLNNYSILWVRQAPGKGLEWIGSIYISGGSTYYANWAKGRFAISKTSSTTVTLQMTSLTAADTATYFCARDDGTASYYLNLWGPGTLVTVSS VL: YDMTQTPASVSEPVGGTVTIKCQASEDIYKLLAWYQQKPGQPPKLLIYAASDLESGVPSRFKGRGSGTDYTLTISDLEAADAATYYCQQAYTIGNIDNSFGGGTEVVVK
9.00

Value source: patent US20250206841A1
